- MEASUREMENT TARGET: CSF-1R on cynomolgous monocytes (native receptor of CD14-enriched peripheral blood monocytes) (cynomolgous)
- EXPERIMENT DESCRIPTION: cell-based or functional assay
READOUT: % survival (CellTiterGlo; cynomolgous monocytes with 150 ng/ml huCSF-1; 5 µg/ml antibody)
Remember to put the unit after the number in your answer.

// worked examples, % survival (CellTiterGlo; cynomolgous monocytes with 150 ng/ml huCSF-1; 5 µg/ml antibody) included
{"BINDER": "Mab 2F11 (antibody, V domains shown) VH: QVQLKESGPGLVAPSQSLSITCTVSGFSLTTYDISWIRQSPGKGLEWLGVIWTDGGTNYNSPFMSRLSIRKDNSKSQVFLKMNRLQTDDTAIYYCVRDQRLYFDVWGAGTTVTVSS VL: NIVMTQSPKSMSMSVGERVTLNCKASEDVNTYVSWYQQQPEQSPKLLIYGASNRYTGVPDRFTGGGSTTDFTLTISSVQAEDLADYFCGQSFSYPTFGTGTKLEIK", "RESULT": "4%"}
{"BINDER": "Mab 2H7 (antibody, V domains shown) VH: QVQLKESGPGLVAPSKSLSITCTVSGSSLDSFDISWIRQPPGKGLEWLGVIWTGGGTNYNSGFMSRLRISKDNSKSQVFLKMSSLQSDDTAIYYCVRDPRLYFDVWGAGTTVTVSS VL: NIVMTQSPKSMSMSVGERVTLSCKASEDVVTYVSWYQQKPEQSPKLLIYGASNRYTGVPDRFTGSGSATDFTLTISSIQAEDLADYYCGQTFSYPTFGTGTKLEIK", "RESULT": "8%"}
{"BINDER": "Mab 1G10 (antibody, V domains shown) VH: RVQLKESGPGLVAPSQSLSITCTVSGFSLTSYDISWIRQSPGKGLEWLGVIWSGGGTNYNSPFMSRLRISKDDSRSQVFLKVNRLQTDDTAIYYCVRDLRLYFDVWGAGTTVTVSS VL: KIVMTQSPKSMSVSVGERVSLSCKASEDVGTYVSWYQQKPEQSPKLLIYGSSNRYTGVPDRFTGSGSATDFTLTISSVQAEDLADYSCGQSFTYPTFGTGTKLEIK", "RESULT": "2%"}

// next item, % survival (CellTiterGlo; cynomolgous monocytes with 150 ng/ml huCSF-1; 5 µg/ml antibody) requested
# input Need % survival (CellTiterGlo; cynomolgous monocytes with 150 ng/ml huCSF-1; 5 µg/ml antibody), item Mab 2E10 (antibody, V domains shown) VH: QVQLKESGPGLVAPSKSLSITCTVSGSSLDSFDISWIRQSPGKGLEWLGVIWTGGGTNYNSGFMSRLRITKDNSKSQVLLKMNSLQSDDTAIYYCVRDPRLYFDVWGAGTTVTVSS VL: NIVMTQSPKSMSMSVGERVTLSCKASEDVVTYVSWYQQKPDQSPKLLIYGASNRYTGVPDRFTGSGSATDFTLTISSVQAEDLADYYCGQTFSYPTFGTGTKLEIK
# output 17%

These entries and their values trace back to patent US20150274831A1.
